Assay: Lipophilicity, log P of the compound
Type: physicochemical
Settings: octanol/water
quantity name: logP

Solved cases below.
[[record]]
mol_smiles = "CC(C)C[C@@H](/C=C/C1(C(=O)NC2CC(C)(C)NC(C)(C)C2)CCCC1)NC(=O)OC(C)(C)C"
quantity_name = "logP"
result = 4.4

[[record]]
mol_smiles = "CC1(C)CC(NC(=O)C/C=C/[C@H](NC(=O)OC(C)(C)C)c2ccccc2)CC(C)(C)N1"
quantity_name = "logP"
result = 2.9

[[record]]
mol_smiles = "CC(C)C[C@@H](/C=C/CC(=O)NC1CC(C)(C)NC(C)(C)C1)NC(=O)OC(C)(C)C"
quantity_name = "logP"
result = 2.8

[[record]]
mol_smiles = "CC(C)C[C@@H](/C=C/C(Cc1ccc(F)cc1)(Cc1ccc(F)cc1)C(=O)NC1CC(C)(C)NC(C)(C)C1)NC(=O)OC(C)(C)C"
quantity_name = "logP"
result = 7.6

[[record]]
mol_smiles = "CC1(C)CC(NC(=O)C(/C=C/[C@H](NC(=O)OC(C)(C)C)c2ccc(F)cc2)(Cc2ccc(F)cc2)Cc2ccc(F)cc2)CC(C)(C)N1"
quantity_name = "logP"
result = 7.9

[[record]]
mol_smiles = "CC(C)C[C@@H](/C=C/C1(C(=O)NC2CC(C)(C)NC(C)(C)C2)CC1)NC(=O)OC(C)(C)C"
quantity_name = "logP"
result = 3.5


We next turn to a different molecule, shown below.
Query: Consider the molecule shown here: CC1(C)CC(NC(=O)C(/C=C/[C@H](NC(=O)OC(C)(C)C)c2ccoc2)(Cc2ccc(F)cc2)Cc2ccc(F)cc2)CC(C)(C)N1 What is its recorded logP?
Response: 6

Values compiled from ChEMBL document CHEMBL5046313.
